Where a name gives a salt, the structure may show the parent alone.
Readout Kind: melting point

c1ccc(C(CNc2nc3ccccc3[nH]2)c2ccccc2)cc1 (as salt: HCl) ... 153.5 to 154.5 °C
c1ccc(C(CCNc2nc3ccccc3[nH]2)c2ccccc2)cc1 (as salt: HCl) ... 136.5 to 137.5 °C
Fc1ccc2c(c1)C(Nc1nc3ccccc3[nH]1)CCC2 (centres unmarked) ... 181 °C

Challenge: Identify the reported melting point for the following entry. `Fc1ccc(C(Nc2nc3ccccc3[nH]2)c2ccc(F)cc2)cc1`
Response given: 241 to 243 °C

Challenge: Identify the reported melting point for the following entry. `Cc1cc2nc(N[C@@H]3CCCc4ccccc43)[nH]c2cc1C`
Response given: 121 to 124 °C

---

# maps each entry to its melting point
Where a name gives a salt, the structure may show the parent alone.

Recorded melting point, per entry:
Fc1ccc(C(CNc2nc3ccccc3[nH]2)c2ccc(F)cc2)cc1 ... 155 to 157 °C
Clc1ccc(C(Nc2nc3ccccc3[nH]2)c2ccc(Cl)cc2)cc1 ... 176 to 180 °C
Clc1ccc2c(c1)CCC2Nc1nc2ccccc2[nH]1 (centres unmarked) ... 242 to 243 °C

Challenge: Identify the reported melting point for the following entry. Fc1ccc2c(c1)CCC2Nc1nc2ccccc2[nH]1 (centres unmarked)
Response given: 207 to 208 °C

Challenge: Identify the reported melting point for the following entry. CC1CCC(Nc2nc3ccccc3[nH]2)c2ccccc21 (centres unmarked) (as salt: HCl)
Response given: 276 °C

Challenge: Identify the reported melting point for the following entry. c1ccc2c(c1)CCCCC2Nc1nc2ccccc2[nH]1 (centres unmarked)
Response given: 203 to 205 °C

Challenge: Identify the reported melting point for the following entry. Clc1ccc(C(Nc2nc3ccccc3[nH]2)c2ccccc2)cc1 (centres unmarked)
Response given: 180 to 184 °C

Challenge: Identify the reported melting point for the following entry. Fc1ccc2nc(NC3CCCc4ccccc43)[nH]c2c1 (centres unmarked)
Response given: 220 to 221 °C

Challenge: Identify the reported melting point for the following entry. CC1CCc2ccccc2C1Nc1nc2ccccc2[nH]1 (centres unmarked)
Response given: 256 to 257 °C

Challenge: Identify the reported melting point for the following entry. `Clc1ccc(C(CNc2nc3ccccc3[nH]2)c2ccc(Cl)cc2)cc1`
Response given: 189 to 190 °C

---

# maps each entry to its melting point

Recorded melting point, per entry:
c1ccc2c(c1)CC(Nc1nc3ccccc3[nH]1)C2 ... 246 to 249 °C
c1ccc(C(Nc2nc3ccccc3[nH]2)c2ccccc2)cc1 [Example 11, N-(Benzimidazol-2-yl)benzhydrylamine] ... 255 to 258 °C
Cc1cc(C)c2c(c1)C(Nc1nc3ccccc3[nH]1)CCC2 (stereo not shown) ... 250 to 252 °C

From here, focus on the item given below.
Challenge: Identify the reported melting point for the following entry. Brc1ccc2c(c1)CCC2Nc1nc2ccccc2[nH]1 (stereo not shown)
Response given: 242 to 243 °C
